In this section, each of the compounds is paired with its reported pest or weed control at 500 g/ha.
Tested on: Setaia fabei (SETFA)
protocol: Post-emergence efficacy, glasshouse spray test
Type: in vivo
condition_details: Setaria faberi, post-emergence, 312 h; Application Rate 500 g/Ha; evaluated after 13 days; read-out: Control of weed species after post-emergence application, SETFA (100=total damage to plant; 0=no damage to plant)
Provide only the numeric value, understood in %.

Examples from the recorded data:
The recorded pest or weed control at 500 g/ha for entry `O=S(=O)([O-])CC[n+]1ccc(-c2cnsc2)cn1` equals 50

compound `O=S(=O)([O-])CC[n+]1ccc(-c2nc(C(F)(F)F)cs2)cn1` , pest or weed control at 500 g/ha observed: 40

Short answer for `O=S(=O)([O-])CC[n+]1ccc(-c2cscn2)cn1` : pest or weed control at 500 g/ha was 70

Just so you know, measured pest or weed control at 500 g/ha for `CCOC(=O)c1oc(-c2cc[n+](CCC(=O)OC)nc2)nc1C` came out at 20

Reported pest or weed control at 500 g/ha for `Cc1coc(-c2cc[n+](CCS(=O)(=O)[O-])nc2)n1` was 80

Short answer for `O=C(O)C[n+]1ccc(-c2ncco2)cn1` : pest or weed control at 500 g/ha was 90

Input `N[C@@H](CC[n+]1ccc(-c2ncco2)cn1)C(=O)O` . Output pest or weed control at 500 g/ha: 80

Lookup result for `O=S(=O)([O-])CC[n+]1ccc(-c2ccsn2)cn1` ; measured pest or weed control at 500 g/ha: 90

pest or weed control at 500 g/ha in this record for `COC(=O)CCC[n+]1ccc(-c2nccs2)cn1` : 50

Shifting focus to the compound that follows.
Looking up `Cn1nncc1-c1cc[n+](CCS(=O)(=O)[O-])nc1` , I see its pest or weed control at 500 g/ha listed as 60

----------
System: Setaia fabei (SETFA)
protocol: Post-emergence efficacy, glasshouse spray test
Format: in vivo
condition_details: Setaria faberi, post-emergence, 312 h; Application Rate 500 g/Ha; evaluated after 13 days; read-out: Control of weed species after post-emergence application, SETFA (100=total damage to plant; 0=no damage to plant)
property_measured: pest or weed control at 500 g/ha (%)
Numbers only here, please. The scale is %.

Consider the reported pest or weed control at 500 g/ha for these molecules:
Case COC(=O)C[n+]1ccc(-c2nc(C)co2)cn1 [Compound A133] , Setaia fabei (SETFA), pest or weed control at 500 g/ha recorded as 0

pest or weed control at 500 g/ha for Setaia fabei (SETFA) with input Cc1coc(-c2cc[n+](CCCC(=O)O)nc2)n1 [Compound A135] equals 90

Tested system Setaia fabei (SETFA); pest or weed control at 500 g/ha recorded for O=S(=O)([O-])OCC[n+]1ccc(-c2ncco2)cn1 [Compound A67] was 80

Entry CCOC(=O)c1coc(-c2cc[n+](CCC(=O)O)nc2)n1 [Compound A126] : pest or weed control at 500 g/ha on Setaia fabei (SETFA) = 70

Here is another molecule to look at.
Record Cn1cc(-c2cc[n+](CCS(=O)(=O)[O-])nc2)nn1 [Compound A81] has Setaia fabei (SETFA) pest or weed control at 500 g/ha equal to 50
